test system: A-431; assay: Cytotoxicity against human A431 cells by MTT assay; type: functional, cell-based
measure-name: pIC50
The meaning of pIC50 here: minus log10 of the concentration in molar units.

| mol | pIC50 |
| --- | --- |
| O=C(C[n+]1ccn(C23CC4CC(CC(C4)C2)C3)c1)c1ccccc1 | 4.88 |
| Cc1cc(C)c(-n2cc[n+](CC(=O)c3ccc4c(c3)COC4)c2)c(C)c1 | 4.74 |
| CC(C)c1cccc(C(C)C)c1-n1cc[n+](CC(=O)c2ccc3c(c2)COC3)c1 | 5.29 |
| COc1ccc(C(=O)C[n+]2ccn(-c3ccc([N+](=O)[O-])cc3)c2)cc1 | 4.12 |
| Cc1cc(C)c(-n2c[n+](CC(=O)c3ccc4ccccc4c3)c(C)c2C)c(C)c1 | 5.41 |

Attention now turns to another entry.
Ask: I would be grateful if you could share the reported pIC50 for `COc1ccc(CCn2cc[n+](CC(=O)c3ccc4ccccc4c3)c2)cc1OC` .
Result: 4.12

---

tested on: HEp-2; assay: Cytotoxicity against human Hep2 cells by MTT assay; type: functional, cell-based
The entries below are paired with their reported pIC50.
The meaning of pIC50 here: minus log10 of the concentration in molar units.

| mol | pIC50 |
| --- | --- |
| Cc1cc(C)c(-n2cc[n+](CC(=O)c3ccccc3)c2)c(C)c1 | 4.01 |
| O=C(C[n+]1ccn(C23CC4CC(CC(C4)C2)C3)c1)c1ccc2ccccc2c1 | 6.10 |
| O=C(C[n+]1ccn(C23CC4CC(CC(C4)C2)C3)c1)c1ccccc1 | 4.03 |
| Cc1cc(C)c(-n2cc[n+](CC(=O)C(C)(C)C)c2)c(C)c1 | 3.88 |

Ask: I would be grateful if you could share the reported pIC50 for `COc1ccc(C(=O)C[n+]2ccn(C(C)(C)C)c2)cc1` .
Result: 3.93

Ask: I would be grateful if you could share the reported pIC50 for `Cc1cc(C)c(-n2cc[n+](CC(=O)c3ccc(Br)cc3)c2)c(C)c1` .
Result: 4.66

---

tested on: SK-OV-3; assay: Cytotoxicity against human SKOV3 cells by MTT assay; assay type: functional, cell-based
# note: exactly 30 µM is not below, so it is false (0); use true (1) for IC50 strictly under it

Answered cases to consult:
| mol | class-assignment |
| --- | --- |
| CC(C)(C)n1cc[n+](CC(=O)c2ccccc2)c1 | false (0) |
| COc1ccc(C(=O)C[n+]2ccn(C(C)(C)C)c2)cc1 | false (0) |
| COc1ccc(C(=O)C[n+]2ccn(-c3ccc([N+](=O)[O-])cc3)c2)cc1 | true (1) |
| COc1ccc(C(=O)C[n+]2ccn(-c3ccc(CC(C)=O)cc3)c2)cc1 | false (0) |
| Cc1cc(C)c(-n2cc[n+](CC(=O)c3ccc(Br)cc3)c2)c(C)c1 | false (0) |
| Cc1cc(C)c(-n2cc[n+](CC(=O)C(C)(C)C)c2)c(C)c1 | false (0) |
| CC(=O)Cc1ccc(-n2cc[n+](CC(=O)c3ccccc3)c2)cc1 | false (0) |
| Cc1cc(C)c(-n2c[n+](CC(=O)c3ccc4ccccc4c3)c(C)c2C)c(C)c1 | true (1) |
| COc1ccc(C(=O)C[n+]2ccn(C34CC5CC(CC(C5)C3)C4)c2)cc1 | true (1) |
| O=C(C[n+]1ccn(C23CC4CC(CC(C4)C2)C3)c1)c1ccc2ccccc2c1 | true (1) |

Now let's try a different one.
Ask: I wonder whether `COc1ccc(C(=O)C[n+]2ccn(CCc3ccc(OC)c(OC)c3)c2)cc1` has IC50 below 30 µM. Can you tell?
Result: false (0)
